B1: Azoarcus group I ribozyme (parent)
chain: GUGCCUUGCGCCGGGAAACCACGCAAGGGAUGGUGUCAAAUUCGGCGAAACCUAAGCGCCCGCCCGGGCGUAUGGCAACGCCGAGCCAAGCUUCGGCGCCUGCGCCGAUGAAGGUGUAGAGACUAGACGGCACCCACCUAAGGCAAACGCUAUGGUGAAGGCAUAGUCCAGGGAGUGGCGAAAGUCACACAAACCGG

Variants of: B1
Experiment: reverse-splicing fitness (ratio to wild type); higher = more active; in vitro selection; Mg2+ level not given
Please provide measured reverse-splicing fitness for the entries that follow.
Form field (numeric): enter value without unit.

[ask] Requested field: reverse-splicing fitness. Item: C150G C169G U176G
[reply] 0.0051

[ask] Entry C82U A111C A120C C150A C169U U176G : reported reverse-splicing fitness = ?
[reply] 0.00677

[ask] Param item = A120U A145C C150G U176C ; retrieve measured reverse-splicing fitness.
[reply] 0.121

[ask] Dear colleague, I am looking for the recorded reverse-splicing fitness of the following variant: A111C A120U A145U C150G C169A U176G
[reply] 0.00296

[ask] Bench note: what reverse-splicing fitness did A120U A145G show?
[reply] 0.837

[ask] So what does the record say about reverse-splicing fitness for A111G A120U C150G U176C ?
[reply] 0.0248

[ask] Fill in the blank: the reported reverse-splicing fitness of C82G A111G A120U A145G C169G U176G is ____.
[reply] 0.00184

[ask] Entry under review: C82A A111G A120C A145C C169U U176G . Reported reverse-splicing fitness?
[reply] 0.00478

[ask] Entry C82G A111G C150A C169U has what reverse-splicing fitness?
[reply] 0.0115

[ask] Using the record for C82G A111G A145G C150G C169A U176C , report its reverse-splicing fitness.
[reply] 0.0146

[ask] Quick check: reverse-splicing fitness of C82G A111C A145G C150U U176C ?
[reply] 0.11

[ask] Fill in the blank: the reported reverse-splicing fitness of C82A A111G A120C A145G C150U C169G is ____.
[reply] 0.0101

[ask] What does the data say about its reverse-splicing fitness? Entry: C82A A111C A120U A145C C169G U176G
[reply] 0.00255

[ask] What value of reverse-splicing fitness has been reported for the following variant? C82G A111U A120U A145C C150G C169A
[reply] 0.00362

[ask] Requested field: reverse-splicing fitness. Item: C82A A120C A145U C150A U176G
[reply] 0.00574

[ask] # query: reverse-splicing fitness of entry A111U A145G U176A
[reply] 0.701

[ask] // reverse-splicing fitness lookup, key: C82A A111G A145G C150A C169G U176G
[reply] 0.00702

[ask] Form field: reported reverse-splicing fitness of A111G A120C A145G C150A C169A U176A
[reply] 0.0185

[ask] What value of reverse-splicing fitness has been reported for the following variant? C82A A111C C150U U176A
[reply] 0.036

[ask] What value of measured reverse-splicing fitness is listed for A111U A120U A145U ?
[reply] 0.607

[ask] Entry C82U A111C A120U C169G U176C : reported reverse-splicing fitness = ?
[reply] 0.0039

[ask] Quick one: reverse-splicing fitness for C82A A111G A120U A145C C150U C169A ?
[reply] 0.00248

[ask] Can you look up the measured reverse-splicing fitness of C82A A111C A145G C150A for me?
[reply] 0.0316

[ask] What value of reverse-splicing fitness has been reported for the following variant? A111C A120G A145U C150A C169G U176C
[reply] 0.0176

[ask] What value of reverse-splicing fitness has been reported for the following variant? C82G A111G A145C C150A U176A
[reply] 0.0205

[ask] Form field: reported reverse-splicing fitness of C82A A111G A120G A145C C150U C169U U176A
[reply] 0.0203

[ask] Requested read-out: reverse-splicing fitness. Entry: C82U A111G A145C C150A
[reply] 0.019

[ask] Look up reverse-splicing fitness: A111G A120U A145U C150U C169G
[reply] 0.0547

[ask] Item under review: A111G A120C C150U C169G U176C . Reported reverse-splicing fitness?
[reply] 0.0169

[ask] Any idea what its reverse-splicing fitness is? The variant is C82A A111U A120U C150G C169U U176C
[reply] 0.00451

[ask] What value of reverse-splicing fitness has been reported for the following variant? C82A A111U A120C A145G C150U C169U U176C
[reply] 0.0148

[ask] Please look up its reverse-splicing fitness: C82U A120U A145C C150G C169U U176C
[reply] 0.00224

[ask] // query reverse-splicing fitness value for entry C82A A111C A145G U176G
[reply] 0.017

[ask] Field request: reverse-splicing fitness | item: A120C A145C C150A U176G
[reply] 0.0481

[ask] Reported reverse-splicing fitness, variant C82U A111C A145U C150U C169G : ____
[reply] 0.00836

[ask] Entry C82G A111C A145G C150U : reported reverse-splicing fitness = ?
[reply] 0.205

[ask] If you can, please state the reported reverse-splicing fitness value of A120U A145U C150A C169A .
[reply] 0.00309

[ask] Which measured reverse-splicing fitness value corresponds to C82G A145C C150A C169G U176A ?
[reply] 0.0223

[ask] Can you share its reverse-splicing fitness? I mean this variant: C82U A120C A145C C150A C169G U176A
[reply] 0.0162

[ask] Param item = C82G A120U A145C C150A U176G ; retrieve measured reverse-splicing fitness.
[reply] 0.00299

[ask] Suppose we examine the variant C82U A111C A145G C150A C169G U176A ; what reverse-splicing fitness value has been reported?
[reply] 0.014

[ask] Quick one: reverse-splicing fitness of C82U A111C A145G C150G U176A ?
[reply] 0.0105

[ask] What does the record list as reverse-splicing fitness for A120G A145G C150A C169A ?
[reply] 0.0788

[ask] Any idea what reverse-splicing fitness was measured for C82G C150U C169G U176A ?
[reply] 0.0154

[ask] Name the recorded reverse-splicing fitness for A111G A145C C150U C169A U176C .
[reply] 0.00832

[ask] Give its reverse-splicing fitness value. Item: C82U A120U A145C C150U C169A U176A
[reply] 0.00242
